TESTED ON: Cathepsin L (Homo sapiens, UniProt P07711)
Sequence (P07711 114-333, species assumed): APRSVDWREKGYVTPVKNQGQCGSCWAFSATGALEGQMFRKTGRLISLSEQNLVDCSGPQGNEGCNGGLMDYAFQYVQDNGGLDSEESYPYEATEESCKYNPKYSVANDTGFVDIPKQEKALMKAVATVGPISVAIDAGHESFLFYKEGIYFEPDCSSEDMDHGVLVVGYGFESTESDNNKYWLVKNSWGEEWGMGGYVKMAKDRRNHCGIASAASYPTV
METHOD DESCRIPTION: Cathepsin L inhibition, fluorogenic peptide substrate kinetic assay (selectivity)
Assay type: biochemical
REPORTED CONDITIONS: ratio of cathepsin L inhibition constant to cathepsin S inhibition constant
METRIC NAME: Selectivity for Cat. S over Cat. L

>>> result("CC(C)[C@@H](CNc1ccc(OC(F)(F)F)cc1)NC(=O)[C@@H](CC(=O)N1CCOCC1)C1CCCCC1")
"++ (++, >100)"
>>> result("COc1ccc([C@H](CC(=O)N2CCOCC2)C(=O)N[C@H](CNc2ccc(OC(F)(F)F)cc2)C(C)C)cc1")
"++ (++, >100)"
>>> result("C=CC[C@H](CC(=O)N1CCOCC1)C(=O)N[C@H](CNc1ccc(OC(F)(F)F)cc1)C(C)C")
"+ (+, >10)"
>>> result("O=C(N[C@H](CNc1ccc(OC(F)(F)F)cc1)c1ccccc1)[C@@H](CC(=O)N1CCOCC1)c1ccc(Cl)cc1")
"++ (++, >100)"
>>> result("Cc1cc(NC[C@H](C)NC(=O)O[C@@H](CC2CCCCC2)C(=O)N2CCOCC2)no1")
"+ (+, >10)"
>>> result("C[C@@H](CNc1ccc(OC(F)(F)F)cc1)NC(=O)[C@@H](CC(=O)N1CCOCC1)CC1CCCC1")
"++ (++, >100)"
>>> result("C[C@@H](CNc1ccc(OC(F)F)cc1)NC(=O)O[C@@H](CC(C)(C)C)C(=O)N1CCOCC1")
"+ (+, >10)"

* * *

TESTED ON: UniProtKB P07711
METHOD DESCRIPTION: Cathepsin L inhibition, fluorogenic peptide substrate kinetic assay (selectivity)
Assay type: biochemical
REPORTED CONDITIONS: ratio of cathepsin L inhibition constant to cathepsin S inhibition constant
METRIC NAME: Selectivity for Cat. S over Cat. L

>>> result("CC(=O)N1CCN(C(=O)[C@H](CC2CCCCC2)OC(=O)N[C@@H](C)CN2c3ccc(F)cc3CC2(C)C)CC1")
"+ (+, >10)"
>>> result("CC(C)[C@@H](CN1CC(C)(C)c2cc(F)ccc21)NC(=O)[C@@H](CC(=O)N1CCOCC1)c1ccc(C(F)(F)F)cc1")
"+++ (+++, >1000)"
>>> result("CC(C)[C@@H](CN1CC(C)(C)c2cc(F)ccc21)NC(=O)OC(C(=O)N1CCOCC1)c1ccccc1 (mixture of isomers)")
"+ (+, >10)"
>>> result("CC[C@@H](CN1CC(C)(C)c2cc(F)ccc21)NC(=O)O[C@@H](CC1CCCCC1)C(=O)N1CCOCC1")
"+++ (+++, >1000)"
>>> result("CC(C)[C@@H](CNc1ccc(OC(F)(F)F)cc1)NC(=O)[C@@H](CC(=O)N1CCOCC1)c1ccc(F)cc1")
"++ (++, >100)"
>>> result("O=C(N[C@H](CNc1ccc(OC(F)(F)F)cc1)c1ccccc1)[C@H](CCC1CCCC1)CC(=O)N1CCOCC1")
"++ (++, >100)"
>>> result("O=C(C[C@@H](CC1CCCCC1)C(=O)N1CCOCC1)NCCNc1ccc(F)cc1")
"+ (+, >10)"

* * *

TESTED ON: Cathepsin B (Homo sapiens, UniProt P07858)
METHOD DESCRIPTION: Cathepsin B inhibition, fluorogenic peptide substrate kinetic assay (selectivity);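 also: value is the cathepsin B inhibition constant divided by the cathepsin S one, each from kinetic fluorescence readings (ex 380 nm, em 450 nm) of a 10 µM coumarin peptide substrate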
Assay type: biochemical
REPORTED CONDITIONS: ratio of cathepsin B inhibition constant to cathepsin S inhibition constant
METRIC NAME: Selectivity for Cat. S over Cat. B

>>> result("CC[C@@H](CNc1ccc(OC(F)(F)F)cc1)NC(=O)[C@@H](CC(=O)N1CCOCC1)CC1CCCCC1 [Example 22]")
"+++ (+++, >1000)"
>>> result("CCC[C@@H](CNc1ccc(OC(F)(F)F)cc1)NC(=O)[C@@H](CC(=O)N1CCOCC1)CC1CCCCC1 [Example 20]")
"+++ (+++, >1000)"
>>> result("C[C@@H](CNc1ccc(OC(F)(F)F)cc1)NC(=O)[C@H](CCC(C)(C)C)CC(=O)N1CCOCC1 [Example 25]")
"++ (++, >100)"
>>> result("O=C(NCCNc1ccc(F)cc1)[C@H](CC1CCCCC1)NC(=O)N1CCOCC1 [Example 3]")
"++ (++, >100)"
>>> result("O=C(NCCNc1ccc(OC(F)(F)F)cc1)[C@@H](CC(=O)N1CCOCC1)CC1CCCCC1 [Example 13]")
"++ (++, >100)"
>>> result("CC[C@@H](CNc1ccc(OC(F)(F)F)cc1)NC(=O)[C@H](CCc1ccccc1)CC(=O)N1CCOCC1 [Example 38]")
"+++ (+++, >1000)"
>>> result("COc1ccc(NCCNC(=O)[C@H](CC2CCCCC2)NC(=O)N2CCOCC2)cc1 [Example 4]")
"+++ (+++, >1000)"
>>> result("C[C@@H](CN1CCc2cc(F)ccc21)NC(=O)[C@H](CC1CCCCC1)OC(=O)N1CCOCC1 [Example 12]")
"++ (++, >100)"
>>> result("C[C@@H](CNc1nc2ccccc2s1)NC(=O)[C@H](CC1CCCCC1)NC(=O)N1CCOCC1 [Example 78]")
"+ (+, >10)"
>>> result("CC(C)[C@@H](CN1CC(C)(C)c2cc(F)ccc21)NC(=O)OC(C(=O)N1CCOCC1)c1ccccc1 (mixture of isomers) [Example 109]")
"+ (+, >10)"
>>> result("Cc1ccc([C@H](CC(=O)N2CCOCC2)C(=O)N[C@H](CNc2ccc(OC(F)(F)F)cc2)C(C)C)cc1 [Example 57]")
"++ (++, >100)"
>>> result("CC(C)[C@@H](CNc1ccc(OC(F)(F)F)cc1)NC(=O)[C@H](CC(=O)N1CCOCC1)c1ccc(S(C)(=O)=O)cc1 [Example 71]")
"+ (+, >10)"
>>> result("O=C(NCCN1CCc2cc(F)ccc21)[C@H](CC1CCCCC1)OC(=O)N1CCOCC1 [Example 1]")
"+ (+, >10)"
>>> result("C[C@@H](CN1CC(C)(C)c2cc(F)ccc21)NC(=O)[C@@H](CC(=O)N1CCOCC1)CC1CCCCC1 [Example 54]")
"+++ (+++, >1000)"
>>> result("O=C(N[C@@H](CCc1ccccc1)CNc1ccc(OC(F)(F)F)cc1)[C@@H](CC(=O)N1CCOCC1)CC1CCCCC1 [Example 23]")
"++ (++, >100)"
>>> result("COc1ccc([C@H](CC(=O)N2CCOCC2)C(=O)N[C@H](CNc2ccc(OC(F)(F)F)cc2)C(C)C)cc1 [Example 53]")
"++ (++, >100)"
>>> result("Cc1cc(NC[C@H](C)NC(=O)O[C@@H](CC2CCCCC2)C(=O)N2CCOCC2)no1 [Example 91]")
"+ (+, >10)"
>>> result("C=CC[C@H](CC(=O)N1CCOCC1)C(=O)N[C@H](CNc1ccc(OC(F)(F)F)cc1)C(C)C [Example 47]")
"+ (+, >10)"
>>> result("O=C(NCCN1CCc2cc(F)ccc21)[C@H](CC1CCCCC1)NC(=O)N1CCOCC1 [Example 2]")
"+++ (+++, >1000)"
>>> result("CC(C)[C@@H](CN1CC(C)(C)c2cc(F)ccc21)NC(=O)O[C@H](C(=O)N1CCOCC1)C1CCCCC1 [Example 111]")
"+++ (+++, >1000)"
>>> result("C[C@@H](CNc1ccc(OC(F)(F)F)cc1)NC(=O)[C@H](CCC1CCCCC1)CC(=O)N1CCOCC1 [Example 21]")
"+++ (+++, >1000)"
>>> result("CC(C)[C@@H](CNc1ccc(OC(F)(F)F)cc1)NC(=O)[C@@H](CC(=O)N1CCOCC1)c1ccc(Cl)cc1 [Example 42]")
"+++ (+++, >1000)"
>>> result("CC1(C)CN([C@H]2COC[C@@H]2NC(=O)O[C@@H](CC2CCCCC2)C(=O)N2CCOCC2)c2ccc(F)cc21 [Example 7]")
"+ (+, >10)"
>>> result("C[C@@H](CN1CC(C)(C)c2cc(F)ccc21)NC(=O)[C@@H](CC(=O)N1CCOCC1)c1ccc(C(F)(F)F)cc1 [Example 66]")
"+ (+, >10)"
>>> result("CC[C@@H](CNc1ccc(OC(F)(F)F)cc1)NC(=O)[C@H](CCC1CCCC1)CC(=O)N1CCOCC1 [Example 36]")
"+++ (+++, >1000)"
>>> result("CC(C)[C@@H](CNc1ccc(OC(F)(F)F)cc1)NC(=O)[C@@H](CC(=O)N1CCOCC1)c1ccc(C(F)(F)F)cc1 [Example 55]")
"++ (++, >100)"
>>> result("C[C@@H](CNc1ccc(OC(F)F)cc1)NC(=O)O[C@@H](CC(C)(C)C)C(=O)N1CCOCC1 [Example 85]")
"+ (+, >10)"
>>> result("O=C(NCCNc1ccc(F)cc1)O[C@@H](CC1CCCCC1)C(=O)N1CCOCC1 [Example 5]")
"+ (+, >10)"
>>> result("O=C(N[C@H](CNc1ccc(OC(F)(F)F)cc1)C1CC1)[C@@H](CC(=O)N1CCOCC1)c1ccc(C(F)(F)F)cc1 [Example 70]")
"++ (++, >100)"
>>> result("CC[C@@H](CNc1ccc(OC(F)(F)F)cc1)NC(=O)[C@H](CC1CCCCC1)NC(=O)N1CCOCC1 [Example 75]")
"+ (+, >10)"
